Every entry's value here was drawn from PubChem BioAssay (NCI).

- Tested on: SK-MEL-2 melanoma
- TEST NAME: NCI tumour cell line growth inhibition, 48 h
MEASUREMENT LABEL: TGI

{"columns": ["COMPOUND", "TGI"],
 "data": [
  ["CSc1ccc(/C=C2/C[N+](C)(C)C/C(=C/c3ccc(SC)cc3)C2=O)cc1", "36.2 µM"],
  ["CCCCn1c(-c2ccc(C(=O)O/N=C(\\N)c3ccc(OC)cc3)cc2)nc(-c2ccccc2)c1-c1ccccc1", "8.36 µM"],
  ["CC(=O)OC1CC2OC(Cc3ccccc32)O1 (stereo unspecified)", "> 100 µM"],
  ["Cn1cc(C2=C(c3cn(C)c4c(N)cccc34)C(=O)NC2=O)c2ccccc21", "11 µM"],
  ["N#Cc1nc(COCCOCc2ccccc2)oc1N", "> 100 µM"]
]}

Look up TGI for the entries below, preserving their order.
1. CCc1cccc(C)c1NC(C)=O
2. Cc1cc(C)cc(Nc2cc(C)nc3nc(C(F)(F)F)nn23)c1
3. CC/C(=N/O)c1ccc(Br)s1

Result:
> 100 µM
> 100 µM
> 100 µM

For each of the compounds below, state TGI.
1. COc1ccc(/C(=N/Nc2ccc([N+](=O)[O-])cc2)Sc2cc(Cl)c(C)cc2S(N)(=O)=O)cc1
2. N#Cc1cnsc1
3. CCCCCCCCCCCCCCCCCc1cccc(OCOCCOC)c1CO

Result:
["34 µM", "> 100 µM", "> 100 µM"]

----------
- System: UACC-62 melanoma
- TEST NAME: NCI tumour cell line growth inhibition, 48 h
MEASUREMENT LABEL: log10 TGI (log10 of the value in µM)
Recorded TGI (log10, µM)

Give log10 TGI for each listed item.
1. COc1cccc(N=Cc2c3ccccc3c(=O)n3c2oc2ccccc23)c1
2. CC[C@@H]1/C=C/C=C/C[C@H](C)[C@@H](O)[C@](C)(O)C(=O)[C@H](C)[C@@H](O)[C@H](C)C(=O)[C@H](C)[C@@H](O)[C@H](C)/C=C/C(=O)O[C@H]2[C@@H](C)[C@@H](CC1)O[C@]1(O[C@H](CC(C)O)[C@H](C)CC1=O)[C@@H]2C (stereo not given in full)

Result:
1. 1.11
2. 0.82

// for each molecule in input: emit log10 TGI
1. COc1ccc(-c2nc(-c3nc4ccc(C)cc4[nH]3)c3ccccn23)cc1
2. Cn1cc(-c2csc(-c3cccc(F)c3)n2)c2cccnc21
3. COc1ccc(S(=O)(=O)N(Cc2ccc3c(n2)C=CC(C)(C)O3)C2CCC2)cc1OC
4. CC#CC(=O)Nc1ccccc1CC(c1c[nH]c2ccccc12)c1c[nH]c2ccccc12
5. CC(=O)[C@]1(O)Cc2c(O)c3c(c(O)c2C(OC2OC(C)C(O)C(O)C2F)C1)C(=O)c1ccccc1C3=O (stereo not given in full)
6. CCCCC/C=C/C/C=C/CCCCCCCC1=NC(C)(C)CN1C(C)C

Result:
1. 0.75
2. 1.44
3. -1.30
4. 1.45
5. -0.14
6. 0.49

----------
Reported GI50, CCRF-CEM leukemia.

Consider the following illustrative entries.
{"columns": ["COMPOUND", "TEST SYSTEM", "MEASUREMENT LABEL", "RESULT VALUE"],
 "data": [
  ["COc1ccc(-n2cc(-c3cc(OC)c(OC)c(OC)c3)[nH]c2=S)cc1OC", "CCRF-CEM leukemia", "GI50", "> 100000 nM"],
  ["CC12CCCC(CC(=O)c3[nH]c4ccccc4c31)C2 (configuration not stated)", "CCRF-CEM leukemia", "GI50", "459 nM"],
  ["CC(C)CSc1nc(Nc2ccccc2)c(C#N)c(-c2ccc(F)cc2)n1", "CCRF-CEM leukemia", "GI50", "5530 nM"],
  ["CC(=O)[O][Hg][c]1c(C)c(C)c(C)c(C)c1C", "CCRF-CEM leukemia", "GI50", "895 nM"],
  ["O=C(C[C@@H](C(=O)NCc1cccc(C(F)(F)F)c1)N1C(=O)[C@@H](N2C(=O)OC[C@@H]2c2ccccc2)[C@H]1/C=C/c1ccccc1)NC1CCN(Cc2ccccc2)CC1", "CCRF-CEM leukemia", "GI50", "2790 nM"],
  ["CCCNC(=S)N/N=C(\\C)c1ccccn1", "CCRF-CEM leukemia", "GI50", "18 nM"]
]}

API: the following record is the query input.
Problem: What value of GI50 has been reported for the following compound? C[C@]12CC[C@@H]3c4ccc(O)cc4CC[C@H]3[C@@H]1CC[C@@H]2NS(=O)(=O)c1ccc(C(F)(F)F)cc1
Result: 2770 nM

----------
- Tested on: NCI/ADR-RES ovarian
# output must be one of active, inactive

{"columns": ["CHEMICAL SMILES", "GROUP"],
 "data": [
  ["COc1ccc(/C(=N/Nc2ccc([N+](=O)[O-])cc2)Sc2cc(Cl)c(C)cc2S(N)(=O)=O)cc1", "inactive"],
  ["COc1cc(Cn2c(-c3ccccc3)cc3c2-c2oncc2CC3)cc(OC)c1OC", "active"],
  ["Cc1c2c(nn1-c1ccc(S(=O)(=O)/N=C3\\SCC(=O)N3C(=O)c3ccccc3)cc1)-c1ccccc1CC2", "inactive"],
  ["NC(N)=NC(N)=Nc1cc2ccccc2c2ccccc12", "inactive"],
  ["COc1ccc2cc(C(=O)/C=C/c3cccc(OC)c3OC)ccc2c1", "inactive"]
]}

Problem: How was COc1cccc(N=Cc2c3ccccc3c(=O)n3c2oc2ccccc23)c1 classified in this test?
Result: inactive

Problem: Called result for CCCNC(=S)N/N=C(\C)c1ccccn1
Result: active

Problem: Which outcome was entered for the compound CCCCC/C=C/C/C=C/CCCCCCCC1=NC(C)(C)CN1C(C)C in this test?
Result: inactive

----------
- Test system: MOLT-4 leukemia
- TEST NAME: NCI tumour cell line growth inhibition, 48 h
For each entry below, report its TGI value.

Sample answers from the record:
{"columns": ["MOLECULE", "RESULT VALUE"],
 "data": [
  ["CSc1nc(Cl)c2c(n1)Sc1nc3cc4c(cc3n1C2O)OCO4 (centres undefined)", "> 100 µM"],
  ["COc1ccc(-n2c(SCc3cc(OC)c(OC)c(OC)c3)nc3ccc(C)cc3c2=O)cc1", "> 100 µM"],
  ["CCOC(=O)CC(NC(=O)c1nc[nH]c1[N+](=O)[O-])C(=O)OCC (centres undefined)", "> 100 µM"],
  ["CSc1ccc(C2C(Cl)C(=O)N2NC(=O)c2c(Cl)c(Cl)c(Cl)c(Cl)c2-c2nc3ccccc3[nH]2)cc1 (centres undefined)", "68.7 µM"],
  ["COc1ccc2c(c1)CCCc1cn[nH]c1-2", "> 100 µM"],
  ["Cc1cc(NS(=O)(=O)c2ccc(N=Nc3c(O)c(C(=O)O)cc4ccccc34)cc2)nc(C)n1", "> 100 µM"],
  ["COc1cc(Cc2cc(OC)c(OC)c(OC)c2)ccc1O", "> 100 µM"],
  ["COc1ccccc1N1C(=O)/C(=C\\c2cccc(Oc3ccccc3)c2)SC1c1ccccc1 (centres undefined)", "> 100 µM"]
]}

// for each molecule below, give its TGI
1. CC(C)NC(=O)OCc1c(COC(=O)NC(C)C)c(-c2ccc[n+](COC(=O)CC(C)(C)C)c2)n2c1CCC2
2. CC(C)=[CH][Sb]([Br])([CH]=C(C)C)([CH]=C(C)C)[CH]=C(C)C
3. CNC1C(=O)C(C)C(O)(C(CC(C)C(O)/C=C/C=C/CNC(=O)C(C)(C)C(O)\C(C)=C/C=C\C=C\Cc2cnc(C)o2)OC)C12C(=O)OC2COC (centres undefined) (tested in a mixture with another compound)
4. COc1ccc(-c2cc3c(nn2)-c2ccccc2C3=O)cc1
5. COC(=O)c1cc2c(c(C(=O)OC)c1O)C(=O)C=CC2=O
6. Cc1cccc2c(N)c3cccc(C(=O)NCCCNCCN)c3nc12

Result:
1. > 100 µM
2. > 100 µM
3. 35.8 µM
4. > 100 µM
5. > 21.5 µM
6. 17.4 µM

Give TGI for each of the items listed below.
1. Nc1c(-c2ccc(Br)cc2)[n+]([O-])c2ccccc2[n+]1[O-]
2. CC/C(=N/O)c1ccc(Br)s1
3. Cc1oc2nc(N(C)C)nc(Cl)c2c1C
4. Cc1ccc(C(=O)/C=C/c2ccccc2O)c(C)c1

Result:
> 100 µM
> 100 µM
> 100 µM
> 100 µM

----------
- System: TK-10 renal
- TEST NAME: NCI tumour cell line growth inhibition, 48 h
MEASUREMENT LABEL: TGI

Reference set (3 entries):
{"columns": ["COMPOUND", "TGI"],
 "data": [
  ["C[C@]12CC[C@@H]3c4ccc(O)cc4CC[C@H]3[C@@H]1CC[C@@H]2NS(=O)(=O)c1ccc(C(F)(F)F)cc1", "8.53 µM"],
  ["O=C(CC(=O)N1N=C(c2ccccc2)C(N=Nc2ccc(Cl)cc2)C1=O)Nc1ccccc1Cl (stereo unspecified)", "38.1 µM"],
  ["COc1ccc(C(=O)O)c(Cc2cccc3ccccc23)c1", "> 100 µM"]
]}

Consider the following items and state reported TGI for each.
1. N#Cc1nc(COCCOCc2ccccc2)oc1N
2. CC(=O)c1cccc2c1CC1(C2)Cc2ccc3c(c2C1=O)CCC3 (stereo unspecified)
3. c1ccc2c(c1)nc1n2CNCC1
4. O=C(CC(=O)n1nc(-c2ccccc2)c(N=Nc2ccc(Cl)cc2)c1-c1ccccc1)Nc1cccc(Cl)c1
5. Cc1cccc(C(C)(C)C)c1NC(=O)CCc1n[nH]c(=S)o1
6. CCCCNC(=O)NS(=O)(=O)c1ccc(N2N=C(c3ccc(C)cc3C)CC2c2ccc(N(C)C)cc2)cc1 (stereo unspecified)
7. CCC1(O)C(=O)OCc2c1cc1n(c2=O)Cc2cc3c(N)cccc3nc2-1 (stereo unspecified)

Result:
["> 100 µM", "77.6 µM", "> 100 µM", "> 100 µM", "> 100 µM", "> 100 µM", "35.8 µM"]

Problem: Field request: TGI | item: CSc1nc(Cl)c2c(n1)Sc1nc3cc4c(cc3n1C2O)OCO4 (stereo unspecified)
Result: > 100 µM
